# systemName: T1, IL-18 receptor (IL-18Rα/IL-18Rβ) overexpressed on HEK-Blue IL-18 cells (Homo sapiens (Human), UniProt Q13478 19-541; O95256 20-599)
# T1 sequence 1: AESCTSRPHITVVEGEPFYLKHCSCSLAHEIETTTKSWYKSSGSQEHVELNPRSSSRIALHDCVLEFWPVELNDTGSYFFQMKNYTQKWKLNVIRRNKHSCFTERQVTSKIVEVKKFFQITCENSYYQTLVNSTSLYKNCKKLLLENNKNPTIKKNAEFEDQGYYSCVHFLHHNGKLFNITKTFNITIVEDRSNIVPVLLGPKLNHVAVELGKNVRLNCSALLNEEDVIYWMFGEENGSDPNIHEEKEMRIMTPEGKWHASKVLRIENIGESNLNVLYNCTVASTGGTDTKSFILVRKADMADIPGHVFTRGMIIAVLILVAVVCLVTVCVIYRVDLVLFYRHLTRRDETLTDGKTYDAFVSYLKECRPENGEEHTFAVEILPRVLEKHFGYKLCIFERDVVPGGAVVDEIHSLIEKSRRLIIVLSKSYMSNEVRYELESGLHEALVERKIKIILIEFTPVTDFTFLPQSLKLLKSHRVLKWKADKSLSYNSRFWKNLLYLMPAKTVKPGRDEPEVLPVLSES
# T1 sequence 2: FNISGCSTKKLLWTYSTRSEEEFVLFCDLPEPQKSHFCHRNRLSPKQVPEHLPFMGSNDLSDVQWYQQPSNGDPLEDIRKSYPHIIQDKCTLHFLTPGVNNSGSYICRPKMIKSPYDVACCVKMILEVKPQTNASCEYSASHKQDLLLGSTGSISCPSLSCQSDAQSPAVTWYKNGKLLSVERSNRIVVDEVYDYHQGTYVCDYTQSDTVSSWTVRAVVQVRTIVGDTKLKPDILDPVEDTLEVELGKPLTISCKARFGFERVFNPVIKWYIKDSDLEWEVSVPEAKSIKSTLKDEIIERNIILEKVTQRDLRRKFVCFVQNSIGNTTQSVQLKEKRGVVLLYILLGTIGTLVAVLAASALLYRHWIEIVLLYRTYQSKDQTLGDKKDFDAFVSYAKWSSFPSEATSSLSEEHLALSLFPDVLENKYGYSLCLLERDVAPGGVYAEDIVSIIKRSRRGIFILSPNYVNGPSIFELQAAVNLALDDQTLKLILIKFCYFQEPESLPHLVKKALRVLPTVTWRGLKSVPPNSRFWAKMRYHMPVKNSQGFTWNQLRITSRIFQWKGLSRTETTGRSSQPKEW
# procedureDetails: cell-based or functional assay
Exercise: state measured HEK-Blue IL-18: Abs 405 for each of the binders provided.
Give bare numbers, in Abs.

I would be grateful if you could provide HEK-Blue IL-18: Abs 405 for each of the following entries.
1. DGL307 (bispecific antibody, V domains shown) V domain 1: QVQLVESGGGLVQAGGSLRLSCAASGRTFSSYTMGWFRQAPGKEREFVAAISWSAGRTYYADSVKGRFTISRDNAKNTVYLQMNSLKPEDTAVYFCAAEEAPDWAPIDCSGYGCLSLYDYWGQGTQVTVSS V domain 2: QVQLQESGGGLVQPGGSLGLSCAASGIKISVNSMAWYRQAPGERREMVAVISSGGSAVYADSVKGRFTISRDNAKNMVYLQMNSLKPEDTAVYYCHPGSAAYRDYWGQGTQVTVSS
2. DGL299 (bispecific antibody, V domains shown) V domain 1: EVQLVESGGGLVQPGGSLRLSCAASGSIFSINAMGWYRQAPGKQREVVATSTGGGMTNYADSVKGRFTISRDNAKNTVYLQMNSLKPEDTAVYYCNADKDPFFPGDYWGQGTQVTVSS V domain 2: QVQLVESGGGLVLPGESLRLSCVVSGTIDNINSMGWYRQAPGKQRELVAYITKLGSANYADSVEGRFTISRDNAKKTVHLQMNSLKPEDTAVYYCHANERGRITWAQGTQVTVSS
3. DGL293 (bispecific antibody, V domains shown) V domain 1: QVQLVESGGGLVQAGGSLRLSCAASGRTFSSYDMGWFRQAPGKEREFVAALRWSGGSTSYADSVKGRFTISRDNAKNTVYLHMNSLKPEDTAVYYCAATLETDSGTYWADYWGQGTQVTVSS V domain 2: QVQLVESGGDLVLPGGSLKLSCEASGSISSRNSMAWYRRAPGKQRELVAAISSISSGGRTDYADFVKGRFTIFRDTAKNMVYLQMNNLKPEDTAVYDCDDPIRVASLAYDDWGQGTQVTVSS

1: 0.35; 2: 0.91; 3: 2.83

// data source = patent US20240209100A1
